Cited source: the supplement of paper PMC10981050

# Tested on: OCI-AML2;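 also: after 48 h exposure read by CellTiter-Glo luminescence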
# protocol: cell viability relative to vehicle control; higher = less cytotoxic
# stated conditions: 10 µM; SRSF2 genotype: P95H/wt
Counter-ions that a name gives are not always drawn.
# cell viability annotations
property name: cell viability

OC(CC1c2ccccc2-c2cncn21)C1CCCCC1 (stereo not given) :: 89.8%
CC1=C(/C=C/C(C)=C/C=C/C(C)=C/C=C/C=C(C)/C=C/C=C(C)/C=C/C2=C(C)C(=O)[C@@H](O)CC2(C)C)C(C)(C)C[C@H](O)C1=O :: 89.8%
CCN(CCCc1ccccc1)CCCc1ccccc1 [Alverine Citrate] :: 87.6%
c1ccc2c(c1)CCCC2C1=NCCN1 (stereo not given) [Tetrahydrozoline HCl] :: 87.8%
CC1=CCC[C@H](C)C(=O)C[C@@H](C(C)C)C(=O)C1 :: 91%
